Assay: Inhibition of rat brain cortex AChE using acetylthiocholine iodide as substrate incubated for 15 mins by spectrophotometry
RESULT TYPE: IC50

In [3]: df
Out[3]:
                                    compound  result_type   result
 0  CCN(C)C(=O)Oc1cc(C(C)N(C)CC)cc2cccnc12 (stereo not given)         IC50  40.7 µM
 1  CC(c1cc(OC(=O)N2CCOCC2)c2ncccc2c1)N1CCOCC1 (stereo not given)         IC50   8.3 µM
 2  CCN(C)C(=O)Oc1cc(C(C)N(C)C)cc2cccnc12 (stereo not given)         IC50   1.2 µM
 3  CCN(C)C(=O)Oc1cc(C(C)N2CCCC2)cc2cccnc12 (stereo not given)         IC50  18.1 µM
 4  CC(c1cc(OC(=O)N2CCCC2)c2ncccc2c1)N1CCOCC1 (stereo not given)         IC50  48.6 µM
 5  CC(c1cc(OC(=O)N2CCCC2)c2ncccc2c1)N(C)C (stereo not given)         IC50  28.6 µM
 6  CC(c1cc(OC(=O)N2CCCCC2)c2ncccc2c1)N(C)C (stereo not given)         IC50  20.6 µM
 7  CCN(C)C(=O)Oc1cc(C(C)N(CC)CC)cc2cccnc12 (stereo not given)         IC50  41.2 µM
 8  CCN(C)C(=O)Oc1cc(C(C)N2CCN(C)CC2)cc2cccnc12 (stereo not given)         IC50  54.7 µM
 9  CCN(CC)C(=O)Oc1cc(C(C)N(C)C)cc2cccnc12 (stereo not given)         IC50  13.6 µM
10  CC(c1cc(OC(=O)N(C)C)c2ncccc2c1)N(C)C (stereo not given)         IC50  16.3 µM
11  CC(c1cc(OC(=O)N2CCOCC2)c2ncccc2c1)N(C)C (stereo not given)         IC50   8.8 µM
12  CCN(C)C(=O)Oc1cc(C(C)N2CCCCC2)cc2cccnc12 (stereo not given)         IC50    29 µM
13       CCN(C)C(=O)Oc1cccc([C@H](C)N(C)C)c1         IC50     9 µM
14  CC(c1cc(OC(=O)N(C)C)c2ncccc2c1)N1CCOCC1 (stereo not given)         IC50  69.9 µM

Where do these numbers come from? They come from BindingDB's records for doi:10.1016/j.ejmech.2019.05.051.
